- study_target: SARS-CoV-2 NSP3 Mac1 (Severe acute respiratory syndrome coronavirus 2, UniProt P0DTD1)
- experimental_details: biochemical
- Assay type: binding
- condition_parameters: FDA-approved compound library primary screen, 50 µM, single shot

{"molecule": "NC(=O)c1ccc[n+]([C@@H]2O[C@H](COP(=O)([O-])OP(=O)(O)OC[C@H]3O[C@@H](n4cnc5c(N)ncnc54)[C@H](O)[C@@H]3O)[C@@H](O)[C@H]2O)c1 [Nadide, reference compound]", "inhibition at 50 µM, %": 99.9}
{"molecule": "C=CC1=C(C)c2cc3[nH]c(cc4nc(cc5[nH]c(cc1n2)c(C)c5CCC(=O)O)C(CCC(=O)O)=C4C)c(C)c3C=C [Protoporphyrin IX, reference compound]", "inhibition at 50 µM, %": 75}
{"molecule": "CN1CCCN=C1/C=C/c1cccc(O)c1 [Oxantel pamoate, reference compound]", "inhibition at 50 µM, %": 55.9}
